pIC50: −log10 of the molar value.
Field pIC50: reported value for Human Factor XIIa (Homo sapiens, UniProt P00748); entries drawn from several documents.

Lookup: // fetch Human Factor XIIa (Homo sapiens, UniProt P00748) pIC50 for Cc1cnc(NCC2CCN(C)CC2)c(C(=O)NCc2ccc3c(N)nccc3c2)c1
Found: 6.00 to 6.52

Lookup: Enter reported pIC50 observed with Human Factor XIIa (Homo sapiens, UniProt P00748) for Cc1cnn(Cc2ccc(Cn3cc(C(=O)NCc4ccc(CN)c(F)c4C)c(C(F)(F)F)n3)cc2)c1
Found: < 4.40

Lookup: Please provide the recorded pIC50 for CS(=O)(=O)c1ccc(NCc2sc(C(=O)NCc3ccc4c(N)nccc4c3)cc2Cl)cc1 , tested on Human Factor XIIa (Homo sapiens, UniProt P00748).
Found: 5.00 to 5.52

Lookup: Given the entry COc1ccnc(CNC(=O)c2cn(Cc3ccc(Cn4ccccc4=O)cc3)nc2N)c1F , what pIC50 was observed with Human Factor XIIa (Homo sapiens, UniProt P00748)?
Found: < 4.40

Lookup: Give Human Factor XIIa (Homo sapiens, UniProt P00748) pIC50 for Nc1c2c(nn1C(=O)c1cccc3ccccc13)CCCC2
Found: 5.40

* * *

Hi, quick share: literature IC50 data for Human Factor XIIa (Homo sapiens), several sources combined.
PROPERTY: IC50 (µM)

* O=C(c1cccc2[nH]ccc12)n1cc2c(n1)CCCC2 | 0.4
* Nc1c2c(nn1C(=O)[C@@H]1CCNc3ccc(Cl)cc31)CC[C@@H](O)C2 (single isomer, unassigned) | 33
* Nc1c2c(nn1C(=O)[C@H]1CCNc3ccc(Cl)cc31)CC[C@@H](O)C2 (single isomer, unassigned) | 0.04
* Nc1nn(C(=O)c2cccc3[nH]c(Br)cc23)c2c1CCCC2 (single isomer, unassigned) | 65
* Nc1c2c(nn1C(=O)[C@@H]1CCNc3ccc(F)cc31)CNCC2 (single isomer, unassigned) | 10
* Nc1c2c(nn1C(=O)C1CCNc3ccc(F)cc31)CN(S(=O)(=O)c1cccnc1)CC2 (stereo not drawn) | 0.7
* CN(C)CCCC[C@@H](NC1CCC2(CC1)CCN(Cc1ccccc1)C2)C(=O)N1CCN(C(=O)CC2CCCC2)C[C@H]1C(=O)NCc1cccs1 (stereo partly drawn) | 0.0235

(a) Nc1c2c(nn1C(=O)C1CCNc3ccc(F)cc31)CN(S(=O)(=O)CC(F)F)CC2 (stereo not drawn)
(b) C[C@@H]1N=C(N2CCN(C(=O)[C@H](N)CCCCN3CCCCC3)[C@H](C(=O)NCc3cccs3)C2)O[C@H]1c1ccccc1
Lookup: Pick one: a or b . Which one has the lower reported IC50? Write down the label attached to your selection.
Found: b

* * *

Here we gather pIC50 data for Human Factor XIIa (Homo sapiens, UniProt P00748) reported by several publications.
pIC50: −log10 of the molar value.

Sample records with pIC50:
- Cc1cccc2c1NCC[C@@H]2C(=O)n1nc(N)c2c1C[C@H](O)CC2 (single isomer, unassigned): < 3.82
- CN1CCC(CNc2nccc3c2C(=O)N(Cc2ccc4c(N)nccc4c2)C3)CC1: 4.40 to 5.00
- COc1ccc(CNc2ncc(C(=O)NCc3ccc4c(N)nccc4c3)cc2Cl)cc1: 4.40 to 5.00
- CN(C)CCCC[C@@H](NC1CCCCC1)C(=O)N1CCN(C(=O)CC2CCCC2)C[C@H]1C(=O)NCc1cccs1: 7.53
- CN1CCC(CNCc2sc(C(=O)NCc3ccc4c(N)nccc4c3)cc2Cl)CC1: 5.00 to 5.52
- CN1CCC(N(C)c2ncc(C(=O)NCc3ccc4c(N)nccc4c3)cc2Cl)CC1: 5.52 to 6.00
- N#Cc1ccc(Oc2ncc(C(=O)NCc3ccc4c(N)nccc4c3)cc2Cl)cc1: 4.40 to 5.00
- Nc1nccc2cc(CNC(=O)c3cc(Cl)c(CNCc4ccccc4)s3)ccc12: 4.40 to 5.00

Lookup: Human Factor XIIa (Homo sapiens, UniProt P00748) / pIC50 / CN1CCN(CCNc2ncc(Cl)cc2C(=O)NCc2ccc3c(N)nccc3c2)CC1 : value?
Found: 5.52 to 6.00

Lookup: # query: pIC50 | item N=C(N)c1nc2ccc(OC(=O)c3cccs3)cc2s1 | system: Human Factor XIIa (Homo sapiens, UniProt P00748)
Found: 8.30

Lookup: Param readout = pIC50; param system = Human Factor XIIa (Homo sapiens, UniProt P00748); param query = Nc1nccc2cc(CNc3cc(OC4CCNCC4)ccn3)ccc12 ; response: value
Found: 5.00 to 5.52

* * *

IC50 for UniProt P00748, merged from several publications.

As a guide, the following entries are already answered.
- CN1CCC(NC(=O)c2ccnc(NCc3ccc4c(N)nccc4c3)c2)CC1: 3 to 10 µM
- CCOc1ccc(C[C@@H](NC(=O)c2sccc2Cl)C(=O)N[C@H](C(=O)NCc2ccc(CN)cc2)[C@H](O)c2ccccc2)cc1: > 10 µM
- C[C@@H]1N=C(N2CCN(C(=O)[C@@H](CCCCN(C)C)NC3CCC(CN)CC3)[C@H](C(=O)NCc3cccs3)C2)O[C@H]1c1ccccc1 (stereo partly shown): 0.0066 µM
- CN1CCN(Cc2cc(Cl)cc(C(=O)NCc3ccc4c(N)nccc4c3)c2)CC1: 3 to 10 µM
- CC(=O)Nc1ccc2c(c1)C(C(=O)n1nc(N)c3c1CN(S(C)(=O)=O)CC3)CCN2 (stereo not shown): > 30 µM

Lookup: Quick check: IC50 of CN1CCC(COc2ncc(Cl)cc2C(=O)NCc2ccc3c(N)nccc3c2)CC1 ?
Found: 10 to 40 µM

Lookup: What value of measured IC50 is listed for CN1CCN(CCNCc2sc(C(=O)NCc3ccc4c(N)nccc4c3)cc2Cl)CC1 ?
Found: 3 to 10 µM

* * *

Here's a roundup of IC50 values tested on Human Factor XIIa (Homo sapiens, UniProt P00748), taken from various published works.

* Nc1nn(C(=O)c2ccnc3cc(Cl)ccc23)c2c1CCCC2 | 60 µM
* CS(=O)(=O)c1cccc(CNc2ncc(C(=O)NCc3ccc4c(N)nccc4c3)cc2Cl)c1 | 3 to 10 µM
* Nc1nccc2cc(CNC(=O)c3cc(Cl)c(CNCCn4ccnc4)s3)ccc12 | 10 to 40 µM

Lookup: Missing value: IC50, Human Factor XIIa (Homo sapiens, UniProt P00748), entry CN(C)Cc1sc(C(=O)NCc2ccc3c(N)nccc3c2)cc1Cl . Fill in?
Found: 10 to 40 µM

Lookup: Field: IC50 (Human Factor XIIa (Homo sapiens, UniProt P00748)). Entry: Nc1c2c(nn1C(=O)C1OCCc3ccccc31)CCCC2 (single isomer, unassigned)
Found: 5.6 µM

Lookup: Recall the recorded IC50 for Nc1nccc2cc(CNC(=O)c3cnc(NC4CCOCC4)c(Cl)c3)ccc12 with Human Factor XIIa (Homo sapiens, UniProt P00748) and state it.
Found: 10 to 40 µM

Lookup: Form entry - test system: Human Factor XIIa (Homo sapiens, UniProt P00748); read-out: IC50; molecule: COCc1nn(Cc2ccc(Cn3cc(F)ccc3=O)cc2)cc1C(=O)NCc1nccc(OC)c1F
Found: > 40 µM

* * *

# IC50 against Human Factor XIIa (Homo sapiens), merged from multiple literature sources

* Nc1nccc2cc(CNC(=O)c3cc(Cl)cnc3NCC3CCn4ccnc4C3)ccc12 (stereo not shown) | 0.3 to 1 µM
* CS(=O)(=O)N1CCc2c(N)nn(C(=O)C3CCNc4ncccc43)c2C1 (stereo not shown) | > 80 µM
* COCc1nn(Cc2cnc(N3CCC(F)(F)C3)nc2)cc1C(=O)NCc1c(-n2cnnn2)ccc(OC)c1F | > 40 µM

# ---- query compound ----
Lookup: // IC50 lookup, key: COCc1nn(Cc2ccc(N3CCC(F)(F)C3)nc2)cc1C(=O)NCc1c(-n2cnnn2)ccc(OC)c1F
Found: > 40 µM

* * *

A compilation of published pIC50 results with Human Factor XIIa (Homo sapiens).
pIC50: −log10 of the molar value.

Lookup: Fill in the recorded pIC50 for this compound, with Human Factor XIIa (Homo sapiens) as test system: Cc1cc(F)cc2c1NCCC2C(=O)n1nc(N)c2c1CN(S(C)(=O)=O)CC2 (stereo not shown)
Found: 4.49

Lookup: Query for Human Factor XIIa (Homo sapiens): what pIC50 does the record show for Cc1cc2c(C(=O)n3nc4c(c3N)CCN(C(=O)OC(C)(C)C)C4)cccc2[nH]1 ?
Found: 7.15

Lookup: Field: pIC50 (Human Factor XIIa (Homo sapiens)). Entry: C[C@@H]1N=C(N2CCN(C(=O)[C@@H](CCCCNS(C)(=O)=O)NC3CCCCC3)[C@H](C(=O)NCc3cccs3)C2)O[C@H]1c1cccc(Cl)c1
Found: 7.64

Lookup: Given the entry C[C@@H]1N=C(N2CCN(C(=O)[C@@H](CCCCN3CCCCC3)NC3CCC(CN)CC3)[C@H](C(=O)NCc3cc4cnccc4s3)C2)O[C@H]1c1ccccc1 (stereo partly shown) , what pIC50 was observed with Human Factor XIIa (Homo sapiens)?
Found: 8.52

Lookup: Observed pIC50 on Human Factor XIIa (Homo sapiens) for Cc1ccc2cc(Cn3cc(C(=O)NCc4c(C)cc(CN)cc4C)c(C)n3)ccc2n1 , please.
Found: < 4.40

Lookup: Please state recorded pIC50 (tested on Human Factor XIIa (Homo sapiens)) of CN(C)CCOc1ccc(CNCc2sc(C(=O)NCc3ccc4c(N)nccc4c3)cc2Cl)cc1
Found: 5.00 to 5.52

Lookup: What value of pIC50 on Human Factor XIIa (Homo sapiens) does Nc1c2c(nn1C(=O)[C@H]1CCNc3ccc(F)cc31)C[C@H](O)CC2 (single isomer, unassigned) have?
Found: 7.15

Lookup: For Human Factor XIIa (Homo sapiens), provide pIC50 of Cc1cc2c(C(=O)n3nc(N)c4c3CCCC4)cccc2o1 (single isomer, unassigned) please.
Found: < 4.00

Lookup: # returns recorded pIC50 (system: Human Factor XIIa (Homo sapiens)) for CN1CCC(CCn2ccc(C(=O)NCc3ccc4c(N)nccc4c3)n2)CC1
Found: 5.52 to 6.00
